Catalogue of MIC readings, one per entry.
- Test system: Pseudomonas aeruginosa
- test.description: Antibacterial activity expressed as MIC value was determined on Pseudomonas aeruginosa A-22233 organism
- Assay type: functional

>  <molecule>
NC[C@H]1O[C@H](O[C@H]2[C@H](O)[C@@H](O[C@H]3O[C@H](CO)[C@@H](O)[C@H](N)[C@H]3O)[C@H](N)C[C@@H]2N)[C@H](O)[C@@H](O)[C@@H]1O

>  <MIC>
> 125 µg/mL

$$$$
>  <molecule>
CC1(C)S[C@@H]2[C@H](NC(=O)C(C(=O)O)c3ccccc3)C(=O)N2[C@H]1C(=O)O.NC[C@H]1O[C@H](O[C@H]2[C@H](O)[C@@H](O[C@H]3O[C@H](CO)[C@@H](O)[C@H](N)[C@H]3O)[C@H](N)C[C@@H]2N)[C@H](O)[C@@H](O)[C@@H]1O

>  <MIC>
> 250 µg/mL

$$$$
>  <molecule>
CC1(C)S[C@@H]2[C@H](NC(=O)C(C(=O)O)c3ccccc3)C(=O)N2[C@H]1C(=O)O (stereo not given in full)

>  <MIC>
> 125 µg/mL

$$$$
>  <molecule>
CC1(C)S[C@@H]2[C@H](NC(=O)C(C(=O)O)c3ccccc3)C(=O)N2[C@H]1C(=O)O.NC[C@H]1O[C@H](O[C@H]2[C@H](O)[C@@H](O[C@H]3O[C@H](CO)[C@@H](O)[C@H](N)[C@H]3O)[C@H](N)C[C@@H]2N)[C@H](N)C[C@@H]1O

>  <MIC>
> 250 µg/mL

$$$$
>  <molecule>
NC[C@H]1O[C@H](O[C@H]2[C@H](O)[C@@H](O[C@H]3O[C@H](CO)[C@@H](O)[C@H](N)[C@H]3O)[C@H](N)C[C@@H]2N)[C@H](N)C[C@@H]1O

>  <MIC>
125 µg/mL

$$$$

----------
- Tested on: Enterobacter cloacae
- test.description: Antibacterial activity expressed as MIC value was determined on Enterobacter cloacae A-21006 organism
- Assay type: functional

>  <compound>
CC1(C)S[C@@H]2[C@H](NC(=O)C(C(=O)O)c3ccccc3)C(=O)N2[C@H]1C(=O)O (stereo not given in full)

>  <MIC>
> 125 µg/mL

$$$$
>  <compound>
NC[C@H]1O[C@H](O[C@H]2[C@H](O)[C@@H](O[C@H]3O[C@H](CO)[C@@H](O)[C@H](N)[C@H]3O)[C@H](N)C[C@@H]2N)[C@H](N)C[C@@H]1O

>  <MIC>
1 µg/mL

$$$$
>  <compound>
CC1(C)S[C@@H]2[C@H](NC(=O)C(C(=O)O)c3ccccc3)C(=O)N2[C@H]1C(=O)O.NC[C@H]1O[C@H](O[C@H]2[C@H](O)[C@@H](O[C@H]3O[C@H](CO)[C@@H](O)[C@H](N)[C@H]3O)[C@H](N)C[C@@H]2N)[C@H](O)[C@@H](O)[C@@H]1O

>  <MIC>
> 250 µg/mL

$$$$
>  <compound>
NC[C@H]1O[C@H](O[C@H]2[C@H](O)[C@@H](O[C@H]3O[C@H](CO)[C@@H](O)[C@H](N)[C@H]3O)[C@H](N)C[C@@H]2N)[C@H](O)[C@@H](O)[C@@H]1O

>  <MIC>
> 125 µg/mL

$$$$
>  <compound>
CC1(C)S[C@@H]2[C@H](NC(=O)C(C(=O)O)c3ccccc3)C(=O)N2[C@H]1C(=O)O.NC[C@H]1O[C@H](O[C@H]2[C@H](O)[C@@H](O[C@H]3O[C@H](CO)[C@@H](O)[C@H](N)[C@H]3O)[C@H](N)C[C@@H]2N)[C@H](N)C[C@@H]1O

>  <MIC>
> 250 µg/mL

$$$$
